target-under-test: AfChiB1 (Aspergillus fumigatus, UniProt Q873X9)
assay-remarks: biochemical
Format: biochemical
run-parameters: Table 5, N3 compounds, against AfChiB; read-out: IC50
pIC50: −log10 of the molar value.
observation-type: pIC50

In the examples that follow, each entry is paired with its recorded pIC50.
compound-structure-string	observation-type	quantitative-readout
CC(C)n1c(=O)n(CCCn2c(=O)c3c(ncn3C)n(C)c2=O)c(=O)c2c1ncn2C	pIC50	6.28
CCn1c(=O)n(CCCn2c(=O)c3c(ncn3C)n(C)c2=O)c(=O)c2c1ncn2C	pIC50	6.51

[A] Cn1cnc2c1c(=O)n(CCCn1c(=O)c3c(ncn3C)n(CCCO)c1=O)c(=O)n2C
[B] C=CCn1c(=O)n(CCCn2c(=O)c3c(ncn3C)n(C)c2=O)c(=O)c2c1ncn2C
In: // max by pIC50 over [ A , B ] Label of pick, please.
Out: B
(B: 6.85, A: 6.36)

----------
Each entry below lists one item and its recorded pIC50 value.
target-under-test: human chitotriosidase (Homo sapiens, UniProt Q13231)
Sequence (Q13231 22-466): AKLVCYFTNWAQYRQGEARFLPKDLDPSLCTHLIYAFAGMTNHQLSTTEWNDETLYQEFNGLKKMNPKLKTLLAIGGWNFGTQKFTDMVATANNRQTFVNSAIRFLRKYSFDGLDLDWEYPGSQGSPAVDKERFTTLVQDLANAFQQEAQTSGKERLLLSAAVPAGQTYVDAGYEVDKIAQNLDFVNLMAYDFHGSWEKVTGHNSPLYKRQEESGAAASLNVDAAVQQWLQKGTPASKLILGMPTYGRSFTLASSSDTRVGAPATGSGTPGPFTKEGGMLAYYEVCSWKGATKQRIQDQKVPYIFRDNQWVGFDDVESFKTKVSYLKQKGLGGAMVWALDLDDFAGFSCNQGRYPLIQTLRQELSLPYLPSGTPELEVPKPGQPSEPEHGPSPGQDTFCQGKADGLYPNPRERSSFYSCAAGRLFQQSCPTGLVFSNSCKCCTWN
As a rule, pIC50 stands for the negative log10 of the concentration, concentration in M.

molecule	observation-type	quantitative-readout
CC(=O)CCCCn1c(=O)c2c(ncn2C)n(C)c1=O [pentoxifylline]	pIC50	4.01

We now examine a further molecule.
In: Field request: pIC50 | item: Cn1c(=O)c2c(ncn2C)n(C)c1=O [caffeine]
Out: 3.59

----------
target-under-test: AfChiB1 (Aspergillus fumigatus)
assay-remarks: biochemical
Format: biochemical
run-parameters: Table 6, N7 compounds, against AfChiB; read-out: IC50
pIC50: −log10 of the molar value.
observation-type: pIC50

compound-structure-string	observation-type	quantitative-readout
COC(=O)CCCn1cnc2c1c(=O)n(CCCn1c(=O)c3c(ncn3C)n(C)c1=O)c(=O)n2C	pIC50	6.85
Cn1cnc2c1c(=O)n(CCCn1c(=O)c3c(ncn3CCC(=O)O)n(C)c1=O)c(=O)n2C	pIC50	6.80
Cn1cnc2c1c(=O)n(CCCn1c(=O)c3c(ncn3CCCC(=O)O)n(C)c1=O)c(=O)n2C	pIC50	6.70
Cn1cnc2c1c(=O)n(CCCn1c(=O)c3nc[nH]c3n(C)c1=O)c(=O)n2C	pIC50	6.70
